# IC50 per entry for eqBuChE (Equus caballus, UniProt P81908)

{"structure-smiles": "Cc1cc(=O)c(OCc2ccccc2)c(-c2ccc3ccc(OC(=O)N4CCCCC4)cc3c2)o1", "IC50": "41.7 nM"}
{"structure-smiles": "Cc1cc(=O)c(OCc2ccccc2)c(-c2ccc(-c3cccc(OC(=O)N4CCCCC4)c3)cc2)o1", "IC50": "94.3 nM"}
{"structure-smiles": "Cc1cc(=O)c(OCc2ccccc2)c(/C=C/c2cccc(OC(=O)N3CCCC3)c2)o1", "IC50": "31.4 nM"}
{"structure-smiles": "Cc1cc(=O)c(OCc2ccccc2)c(/C=C/c2cccc(OC(=O)N(C)C)c2)o1", "IC50": "24.6 nM"}
